# Test system: upland rice (Oryza sp., var. Tebonnet, RICE)
# protocol: Pre-emerge test, crop safety
# Type: in vivo
# condition_info: 63 g ai/ha; rated 14 days after application; 0 = no damage, 100 = complete death
result_type: Pre-emerge phytotoxicity rating (0-100), crop damage, RICE
Lab note: write the figure by itself, no unit.

Item COc1c(Cl)cc(F)c(-n2c(=O)cc(C(F)(F)F)n(C)c2=O)c1NC(=O)c1ccc(Cl)cc1Cl was tested on upland rice (Oryza sp., var. Tebonnet, RICE); the reported Pre-emerge phytotoxicity rating (0-100), crop damage, RICE is 80

Item COc1c(Cl)cc(F)c(-n2c(=O)cc(C(F)(F)F)n(C)c2=O)c1NC(=O)C=Cc1ccccc1Cl was tested on upland rice (Oryza sp., var. Tebonnet, RICE); the reported Pre-emerge phytotoxicity rating (0-100), crop damage, RICE is 10

Item COc1c(Cl)cc(F)c(-n2c(=O)cc(C(F)(F)F)n(C)c2=O)c1N(C(=O)c1ccc(Cl)nc1)C(=O)c1ccc(Cl)nc1 was tested on upland rice (Oryza sp., var. Tebonnet, RICE); the reported Pre-emerge phytotoxicity rating (0-100), crop damage, RICE is 75

Item COc1c(Cl)cc(F)c(-n2c(=O)cc(C(F)(F)F)n(C)c2=O)c1NC(=O)c1ccc(CCl)cc1 was tested on upland rice (Oryza sp., var. Tebonnet, RICE); the reported Pre-emerge phytotoxicity rating (0-100), crop damage, RICE is 0

Item COc1c(Cl)cc(F)c(-n2c(=O)cc(C(F)(F)F)n(C)c2=O)c1NC(=O)C=Cc1ccccc1 was tested on upland rice (Oryza sp., var. Tebonnet, RICE); the reported Pre-emerge phytotoxicity rating (0-100), crop damage, RICE is 40

Item COc1c(Cl)cc(F)c(-n2c(=O)cc(C(F)(F)F)n(C)c2=O)c1NC(=O)c1cccnc1 was tested on upland rice (Oryza sp., var. Tebonnet, RICE); the reported Pre-emerge phytotoxicity rating (0-100), crop damage, RICE is 60

Item COc1c(Cl)cc(F)c(-n2c(=O)cc(C(F)(F)F)n(C)c2=O)c1NC(=O)COC(C)=O was tested on upland rice (Oryza sp., var. Tebonnet, RICE); the reported Pre-emerge phytotoxicity rating (0-100), crop damage, RICE is 30

Item COc1c(Cl)cc(F)c(-n2c(=O)cc(C(F)(F)F)n(C)c2=O)c1NC(=O)c1cccc(Cl)c1 was tested on upland rice (Oryza sp., var. Tebonnet, RICE); the reported Pre-emerge phytotoxicity rating (0-100), crop damage, RICE is 70

Item COc1c(Cl)cc(F)c(-n2c(=O)cc(C(F)(F)F)n(C)c2=O)c1NC(=O)c1c(F)c(F)c(F)c(F)c1F was tested on upland rice (Oryza sp., var. Tebonnet, RICE); the reported Pre-emerge phytotoxicity rating (0-100), crop damage, RICE is 0

Item COc1c(Cl)cc(F)c(-n2c(=O)cc(C(F)(F)F)n(C)c2=O)c1NC(=O)c1cccc(F)c1F was tested on upland rice (Oryza sp., var. Tebonnet, RICE); the reported Pre-emerge phytotoxicity rating (0-100), crop damage, RICE is 50

Item COc1c(Cl)cc(F)c(-n2c(=S)cc(C(F)(F)F)n(C)c2=O)c1NC(=S)c1ccc(F)cc1F was tested on upland rice (Oryza sp., var. Tebonnet, RICE); the reported Pre-emerge phytotoxicity rating (0-100), crop damage, RICE is 20

Item COc1c(Cl)cc(F)c(-n2c(=O)cc(C(F)(F)F)n(C)c2=O)c1N(C(=O)c1ccc(C(F)(F)F)cc1)C(=O)c1ccc(C(F)(F)F)cc1 was tested on upland rice (Oryza sp., var. Tebonnet, RICE); the reported Pre-emerge phytotoxicity rating (0-100), crop damage, RICE is 40

Item COc1c(Cl)cc(F)c(-n2c(=O)cc(C(F)(F)F)n(C)c2=O)c1NC(=O)c1ccc(Cl)c(Cl)c1 was tested on upland rice (Oryza sp., var. Tebonnet, RICE); the reported Pre-emerge phytotoxicity rating (0-100), crop damage, RICE is 25

Item CCOC(=O)C(=O)Nc1c(OC)c(Cl)cc(F)c1-n1c(=O)cc(C(F)(F)F)n(C)c1=O was tested on upland rice (Oryza sp., var. Tebonnet, RICE); the reported Pre-emerge phytotoxicity rating (0-100), crop damage, RICE is 0

Item COc1c(Cl)cc(F)c(-n2c(=O)cc(C(F)(F)F)n(C)c2=O)c1NC(=O)c1ccc(C)c(C)c1 was tested on upland rice (Oryza sp., var. Tebonnet, RICE); the reported Pre-emerge phytotoxicity rating (0-100), crop damage, RICE is 80
